Reference source: patent US20260209260A1

# assaySummary: Luminescence emission spectra and quantum yield
# Type: physicochemical
# experimentalParameters: room temperature; reference POPOP in hexane or rhodamine B in ethanol
The entries below come with measured ΦP emission phosphorescence quantum yield values attached.
Dear colleague, please return just the value in %, with no unit written.

The cases that follow already have their ΦP emission phosphorescence quantum yield on record.
structureSmilesString	measuredResult
F[P-](F)(F)(F)(F)F.O=C(NCCCn1cc[n+]2[c]1[Ir-3]13([c]4c(sc5ccccc45)-c4cccc[n+]41)([c]1c(sc4ccccc14)-c1cccc[n+]13)[n+]1ccccc1-2)[c-]1cccc1.[Fe+2].c1cc[cH-]c1	0.01
F[P-](F)(F)(F)(F)F.O=C(NCCCn1cc[n+]2[c]1[Ir-3]13([c]4cccc5ccc6ccc[n+]1c6c45)([c]1cccc4ccc5ccc[n+]3c5c14)[n+]1ccccc1-2)[c-]1cccc1.[Fe+2].c1cc[cH-]c1	0.02
Cc1ccc2[c](c1)[Ir-3]13([c]4cc(C)ccc4-c4cccc[n+]41)([c]1n(CCCNC(=O)[c-]4cccc4)cc[n+]1-c1cccc[n+]13)[n+]1ccccc1-2.F[P-](F)(F)(F)(F)F.[Fe+2].c1cc[cH-]c1	0.03
F[P-](F)(F)(F)(F)F.O=C(CCCC[C@@H]1SC[C@@H]2NC(=O)N[C@@H]21)NCCCn1cc[n+]2[c]1[Ir-3]13([c]4ccccc4-c4sc5ccccc5[n+]41)([c]1ccccc1-c1sc4ccccc4[n+]13)[n+]1ccccc1-2	7.0
Cc1ccc2[c](c1)[Ir-3]13([c]4cc(C)ccc4-c4cccc[n+]41)([c]1n(CCC(=O)NCCCC[C@H](NC(=O)N[C@@H](CCC(=O)O)C(=O)O)C(=O)O)cc[n+]1-c1cccc[n+]13)[n+]1ccccc1-2.F[P-](F)(F)(F)(F)F	1.8
COC(=O)c1cccc2[c]1[Ir-3]13([c]4c(C(=O)OC)cccc4-c4cccc[n+]41)([c]1n(CCCNC(=O)CCCC[C@@H]4SC[C@@H]5NC(=O)N[C@@H]54)cc[n+]1-c1cccc[n+]13)[n+]1ccccc1-2.F[P-](F)(F)(F)(F)F	0.7

Exam item: Suppose we examine the compound `COC(=O)c1ccc2[n+](c1)[Ir-3]13([c]4ccccc4-2)([c]2ccccc2-c2ccc(C(=O)OC)c[n+]21)[c]1n(CCCNC(=O)c2ccccc2SC/C=C(\C)CC/C=C(\C)CCC=C(C)C)cc[n+]1-c1cccc[n+]13.F[P-](F)(F)(F)(F)F` ; what ΦP emission phosphorescence quantum yield value has been reported?
Marked response: 4.6

* * *

The entries below come with measured GI50 values attached.
# Tested on: A549 lung cancer cells
# assaySummary: Cell viability assay (MTT), dark and blue light
# Type: cell-based, Human
# experimentalParameters: in the dark, 72 h; read-out: GI50 A549 Dark
Dear colleague, please return just the value in µM, with no unit written.

Exam item: Provide the documented GI50 with A549 lung cancer cells as the system for `CC(C)=CCC/C(C)=C/CC/C(C)=C/CSc1ccccc1C(=O)NCCCn1cc[n+]2[c]1[Ir-3]13([c]4ccccc4-c4ccc5ccccc5[n+]41)([c]1ccccc1-c1ccc4ccccc4[n+]13)[n+]1ccccc1-2.F[P-](F)(F)(F)(F)F`
Marked response: 0.45

Exam item: Provide the documented GI50 with A549 lung cancer cells as the system for `F[P-](F)(F)(F)(F)F.O=C(CCCC[C@@H]1SC[C@@H]2NC(=O)N[C@@H]21)NCCCn1cc[n+]2[c]1[Ir-3]13([c]4ccccc4-c4c5ccccc5cc[n+]41)([c]1ccccc1-c1c4ccccc4cc[n+]13)[n+]1ccccc1-2`
Marked response: 13.1

Exam item: Provide the documented GI50 with A549 lung cancer cells as the system for `COC(=O)c1ccc2[n+](c1)[Ir-3]13([c]4ccccc4-2)([c]2ccccc2-c2ccc(C(=O)OC)c[n+]21)[c]1n(CCCNC(=O)c2ccccc2SC/C=C(\C)CC/C=C(\C)CCC=C(C)C)cc[n+]1-c1cccc[n+]13.F[P-](F)(F)(F)(F)F`
Marked response: 3.8

Exam item: Provide the documented GI50 with A549 lung cancer cells as the system for `F[P-](F)(F)(F)(F)F.O=C(CCCC[C@@H]1SC[C@@H]2NC(=O)N[C@@H]21)NCCCn1cc[n+]2[c]1[Ir-3]13([c]4ccccc4-c4ccc5ccccc5[n+]41)([c]1ccccc1-c1ccc4ccccc4[n+]13)[n+]1ccccc1-2`
Marked response: 9.1

Exam item: Provide the documented GI50 with A549 lung cancer cells as the system for `F[P-](F)(F)(F)(F)F.O=C(CCCC[C@@H]1SC[C@@H]2NC(=O)N[C@@H]21)NCCCn1cc[n+]2[c]1[Ir-3]13([c]4ccccc4-c4sc5ccccc5[n+]41)([c]1ccccc1-c1sc4ccccc4[n+]13)[n+]1ccccc1-2`
Marked response: 12.2

Exam item: Provide the documented GI50 with A549 lung cancer cells as the system for `COC(=O)c1ccc2[n+](c1)[Ir-3]13([c]4ccccc4-2)([c]2ccccc2-c2ccc(C(=O)OC)c[n+]21)[c]1n(CCCNC(=O)CCCC[C@@H]2SC[C@@H]4NC(=O)N[C@@H]42)cc[n+]1-c1cccc[n+]13.F[P-](F)(F)(F)(F)F`
Marked response: 107
